Target: His-tagged human recombinant kinase full-length Akt1 (Homo sapiens (Human), UniProt P31749)
Sequence (P31749 whole entry): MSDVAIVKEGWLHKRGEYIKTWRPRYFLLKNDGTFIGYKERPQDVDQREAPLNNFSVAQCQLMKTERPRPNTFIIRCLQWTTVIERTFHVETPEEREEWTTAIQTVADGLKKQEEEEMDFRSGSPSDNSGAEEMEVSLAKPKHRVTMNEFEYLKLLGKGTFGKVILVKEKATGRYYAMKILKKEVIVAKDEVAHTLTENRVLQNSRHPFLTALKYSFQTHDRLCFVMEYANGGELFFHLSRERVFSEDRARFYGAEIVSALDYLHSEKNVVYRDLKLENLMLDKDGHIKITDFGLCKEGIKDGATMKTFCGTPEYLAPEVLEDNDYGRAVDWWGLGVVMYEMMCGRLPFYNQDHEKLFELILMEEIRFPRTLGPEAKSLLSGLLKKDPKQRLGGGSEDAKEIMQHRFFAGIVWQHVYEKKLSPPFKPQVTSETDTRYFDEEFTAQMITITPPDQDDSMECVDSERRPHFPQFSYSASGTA
Assay: Akt1 kinase assay (Akt1 TR-FRET assay, Biological Assay 1.0)
Type: biochemical
Details: 10 μM ATP, 1 μM biotinylated peptide substrate, 60 min at 22° C.
From the text: Biological Assay 1.0: Akt1 Kinase Assay Akt1 inhibitory activity of compounds of the present invention may be quantified employing the Akt1 TR-FRET assay as described in the following paragraphs. His-tagged human recombinant kinase full-length Akt1 expressed in insect cells was purchased form Invitrogen (part number PV 3599). […]
parameter: IC50 (nM)

[[record]]
compound = "Cc1nc2nc(-c3ccc(CN4CCC(c5n[nH]c(-c6cnccn6)n5)CC4)cc3)c(-c3ccc(F)cc3F)cn2n1"
output_unit = "nM"
experimental_value = 355

[[record]]
compound = "CSc1nc2nc(-c3ccc(CN4CC(c5n[nH]c(-c6cccc(C)n6)n5)C4)cc3)c(-c3ccccc3)cn2n1"
output_unit = "nM"
experimental_value = 5

[[record]]
compound = "Fc1ccc(-c2cn3nc(C4CC4)nc3nc2-c2ccc(CN3CCC(c4n[nH]c(-c5ccccn5)n4)CC3)cc2)cc1"
output_unit = "nM"
experimental_value = 32

[[record]]
compound = "Cc1nc2nc(-c3ccc(CN4CCC(c5nc6ccncc6[nH]5)CC4)cc3)c(-c3ccccc3)cn2n1"
output_unit = "nM"
experimental_value = 3000

[[record]]
compound = "c1ccc(-c2cn3nccc3nc2-c2ccc(CN3CCC(c4nc5cccnc5[nH]4)CC3)cc2)cc1"
output_unit = "nM"
experimental_value = 42


1. CC(C)Nc1nc2nc(-c3ccc(CN4CC(c5n[nH]c(-c6ccccn6)n5)C4)cc3)c(-c3ccccc3)cn2n1
2. CSc1nc2nc(-c3ccc(CN4CCC(c5n[nH]c(-c6ncccn6)n5)CC4)cc3)c(-c3ccccc3)cn2n1
3. N#Cc1ccc2nc(C3CCN(Cc4ccc(-c5nc6ccnn6cc5-c5ccccc5)cc4)CC3)[nH]c2c1
4. Cc1nc2nc(-c3ccc(CN4CCC(c5nc6ccc(C(F)(F)F)cc6[nH]5)CC4)cc3)c(-c3ccccc3)cn2n1
5. COc1nn2cc(-c3c(F)cccc3F)c(-c3ccc(CN4CCC(c5n[nH]c(-c6ccccn6)n5)CC4)cc3)nc2c1CO
Reorder: IC50, max to min. Answer format: the labels, in the requested order.
4, 2, 3, 1, 5

P. CNc1c(-c2ccccc2)c(-c2ccc(CN3CC(c4n[nH]c(-c5ccccn5)n4)C3)cc2)nc2nc(C)cn12
Q. Cc1cccc(-c2nc(C3CN(Cc4ccc(-c5nc6nc(C)nn6cc5-c5ccc(F)cc5F)cc4)C3)n[nH]2)n1
Please indicate which item has the smaller measured IC50: P versus Q State your choice using its label.
P
(P: 16 nM, Q: 29 nM)

1. CC(C)Nc1c(-c2ccccc2)c(-c2ccc(CN3CC(c4n[nH]c(-c5ccccn5)n4)C3)cc2)nc2nccn12
2. Cc1cn2cc(-c3ccccc3)c(-c3ccc(CN4CCC(c5cnc6ccccc6n5)CC4)cc3)nc2n1
3. CNc1c(-c2ccccc2)c(-c2ccc(CN3CC(c4n[nH]c(-c5ccccn5)n4)C3)cc2)nc2ncc(Br)n12
Reorder: IC50, max to min. Answer format: the labels, in the requested order.
2, 3, 1

I. Cc1cccc(-c2nc(C3CN(Cc4ccc(-c5nc6nc(C(C)C)nn6cc5-c5ccccc5)cc4)C3)n[nH]2)n1
II. c1ccc(-c2cn3nc(C4CC4)nc3nc2-c2ccc(CN3CC(c4n[nH]c(-c5ccccn5)n4)C3)cc2)cc1
Kindly identify which of I and II has the larger recorded IC50 value. State your choice using its label.
I
(I: 70 nM, II: 7 nM)
